System: EKVX
measurement description: NCI tumour cell line growth inhibition, 48 h
Calls of active or inactive are those of the source. Cut-off read from the data, not from the text of the source: active = GI50 up to about 1.1 µM and inactive = higher.
recorded metric: GI50

C=CCN1C(=O)/C(=C/c2ccccc2)NC1=S :: 91 µM (inactive)
CCn1c(C)nn2c(=O)c3ccccc3nc2c1=O :: > 100 µM (inactive)
CC(C)C(OC(=O)c1ccc(NCC2=CC(=O)C=CC2=O)cc1)C(C)C :: 8.26 µM (inactive)
Cc1c2cc[n+](C)cc2c(C)c2c1[nH]c1ccc(O)c(OCC(F)(F)F)c12 :: 2.68 µM (inactive)
c1ccc(COC2NCCN2Cc2ccccc2)cc1 (stereo unspecified) :: 51.2 µM (inactive)
Cc1c(CCN2CCOCC2)c(N2CCOCC2)n2c(nc3ccccc32)c1C#N :: > 10 µM (inactive)
Nc1nc2c(c(=O)[nH]1)N=C(COP(=O)(O)OP(=O)(O)O)CN2 :: > 100 µM (inactive)
COc1ccc(NC(=O)C(=O)c2c(O)c3ccc(O)cc3oc2=O)c([N+](=O)[O-])c1 :: > 100 µM (inactive)

// fetch EKVX GI50 for CC(=O)c1csc2c1C(=O)c1scc(C(C)=O)c1C2=O
1.89 µM (inactive)

// fetch EKVX GI50 for COC(=O)/C=C\C(C#N)(C#N)/N=C/c1sccc1C
3.59 µM (inactive)

// fetch EKVX GI50 for CN1C=Cc2nccc3cc4c(c1c23)OCO4
1.85 µM (inactive)
